system: weeds (ABUTH, AMATA, AMBEL, CHEAL, ERICA); assay: Postemergence herbicide evaluation, overall average % weed control across ABUTH, AMATA, AMBEL, CHEAL, ERICA; assay type: in vivo; conditions: post-emergence, 168 h; 280 g ae/ha, 7 DAA, average over the five weeds; read-out: Overall Ave % Weed Control
measure.name: pest or weed control at 280 g/ha
Record the result as number plus unit.

Data request: Return reported pest or weed control at 280 g/ha; argument: O=C(COc1ccc(Cl)cc1Cl)n1cnc2ccccc21 [Compound D4]
Data returned: 72%

Data request: What value of pest or weed control at 280 g/ha has been recorded for this entry: Cc1ccc(S(=O)(=O)NC(=O)COc2ccc(Cl)cc2Cl)cc1 [Compound D5]
Data returned: 56%

Data request: What value of measured pest or weed control at 280 g/ha is listed for O=C(COc1ccc(Cl)cc1Cl)Oc1ccc(Cl)cc1 [Compound E5] ?
Data returned: 71%

Data request: Which pest or weed control at 280 g/ha reading was recorded for the compound O=C(Cc1ccccc1)NOC(=O)COc1ccc(Cl)cc1Cl [Compound A13] ?
Data returned: 67%

Data request: Quick one: pest or weed control at 280 g/ha for O=C(COc1ccc(Cl)cc1Cl)NNC(=O)c1ccccc1 [Compound D10] ?
Data returned: 71%

Data request: Query: pest or weed control at 280 g/ha; subject: CCO/C(CC)=N\OC(=O)COc1ccc(Cl)cc1Cl [Compound A9]
Data returned: 72%

Data request: Please report the recorded pest or weed control at 280 g/ha for C/C(N)=N/OC(=O)COc1ccc(Cl)cc1Cl [Compound A12] .
Data returned: 72%

Data request: Look at this compound and give its reported pest or weed control at 280 g/ha. O=C(COc1ccc(Cl)cc1Cl)O/N=C/c1ccc(/C=N/OC(=O)COc2ccc(Cl)cc2Cl)cc1 [Compound B3]
Data returned: 47%

Data request: Entry O=C(COc1ccc(Cl)cc1Cl)ONC(=O)c1ccc(C(=O)NOC(=O)COc2ccc(Cl)cc2Cl)cc1 [Compound B4] : reported pest or weed control at 280 g/ha = ?
Data returned: 65%

###

Could you please report measured pest or weed control at 280 g/ha for the items listed next?
test system: Abutilon theophrasti (ABUTH), velvetleaf; test: Postemergence herbicide evaluation, growth of Abutilon theophrasti (ABUTH); assay type: in vivo; settings: Abutilon theophrasti, post-emergence, 168 h, 280 g ae/ha, 7 DAA, percent reduction in plant size relative to untreated control; read-out: AVE. ABUTH
Write the quantity with the unit trailing the number.

Data request: Give the measured pest or weed control at 280 g/ha of CCOC(=O)C(=NOC(=O)COc1ccc(Cl)cc1Cl)C(=O)OCC .
Data returned: 75%

Data request: Which value of pest or weed control at 280 g/ha has been reported for C/C(C/C(C)=N/OC(=O)COc1ccc(Cl)cc1Cl)=N\OC(=O)COc1ccc(Cl)cc1Cl in the records?
Data returned: 78%

Data request: Recorded pest or weed control at 280 g/ha of CN(NC(=O)COc1ccc(Cl)cc1Cl)C(=O)c1ccccc1 , please.
Data returned: 43%

###

tested on: glyphosate resistant Conyza canadensis (L.) (ERICA), horseweed; assay: Postemergence herbicide evaluation, growth of Conyza canadensis (ERICA); type: in vivo; conditions: Erigeron canadensis, post-emergence, 336 h, 560 g ae/ha, 14 DAA, percent reduction in plant size relative to untreated control; read-out: Ave. ERICA
Provide the recorded pest or weed control at 560 g/ha for the entries that follow.
The reply should be a number in %, with the unit left off.

Data request: Requested field: pest or weed control at 560 g/ha. Item: CN(OC(=O)COc1ccc(Cl)cc1Cl)C(=O)c1ccccc1 [Compound A16]
Data returned: 92

Data request: Dear colleague, I am looking for the recorded pest or weed control at 560 g/ha of the following compound: Cn1c(O)c(C(=O)COc2ccc(Cl)cc2Cl)c2ccccc21 [Compound C1]
Data returned: 0

Data request: Item under review: O=C(COc1ccc(Cl)cc1Cl)ONC(=O)c1ccc(C(=O)NOC(=O)COc2ccc(Cl)cc2Cl)cc1 [Compound B4] . Reported pest or weed control at 560 g/ha?
Data returned: 95
